Source: ChEMBL document CHEMBL4706665

Test: Binding affinity to human thrombin Ala190Ser mutant
readout-label: Ki (nM)
Numbers only here, please. The scale is nM.

// lookup Ki for N[C@H](Cc1ccccc1)C(=O)N1CCC[C@H]1C(=O)NCc1cccc(Cl)c1
320

---

Assay: Dissociation constant, pKa of compound
Assay type: physicochemical
readout-label: pKa
Provide a numeric answer; units are not to be included.

// lookup pKa for NCc1ccc(CNC(=O)[C@@H]2CCCN2C(=O)[C@H](N)Cc2ccccc2)cc1
9.3
